Biological target: T1, soluble H-2K^b (K^bsol), heterodimer of truncated K^b heavy chain and murine β-2 microglobulin, purified empty from Drosophila cells (murine), P01901
T1 chain 1: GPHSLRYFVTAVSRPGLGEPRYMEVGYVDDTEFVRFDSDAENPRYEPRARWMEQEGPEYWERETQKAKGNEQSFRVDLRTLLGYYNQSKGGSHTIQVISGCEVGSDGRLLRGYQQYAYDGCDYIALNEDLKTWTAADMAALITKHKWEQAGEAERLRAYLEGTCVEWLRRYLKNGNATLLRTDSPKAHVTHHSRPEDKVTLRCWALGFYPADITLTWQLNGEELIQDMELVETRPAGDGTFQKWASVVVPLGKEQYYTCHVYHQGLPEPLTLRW
T1 chain 2: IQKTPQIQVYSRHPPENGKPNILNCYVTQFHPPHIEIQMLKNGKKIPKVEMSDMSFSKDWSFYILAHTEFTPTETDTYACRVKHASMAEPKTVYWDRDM
pKd: −log10 of the molar value.
ASSAY_ENDPOINT: pKd

binder="RGYVYQGL (modifications not checked) [[^125I]VSV-8]" assay_endpoint=pKd endpoint_result=7.48
